molecular target: human PPARα (Homo sapiens); construct: 1.6 kb of DNA fragment including human PPARα gene was collected from the gel; expressed in transfected cells; host or cells: CV-1 cells, transient transfection with pCI-hPPARa, pCI-hRXRa and the reporter pGL3-PPRE3-TK; experiment: Human PPARα agonist assay (luciferase reporter in transfected CV-1 cells); assay type: cell-based; conditions: at 1 μM test compound alone; 100% = 1 μM stimulant (GW7647) only; CV-1 cells expressing human PPARα and RXRα
MEASURED PARAMETER: Human PPARα agonist activities, Activity % (at 1 μM) (%)
Answers are plain numbers, in %.

Example entries and their recorded answers appear below.
COc1cc(Cn2c3ccccc3c3c(OC(C)(C)C(=O)O)cccc32)ccc1OCc1nc(-c2ccccc2)sc1C    73
CCC(Oc1cccc2c1c1ccccc1n2Cc1ccc(OCc2nc(-c3ccccc3)oc2C)c(OC)c1)C(=O)[O-].[Na+] (centres unmarked)    21
COc1cc(Cn2c3ccccc3c3c(OCC(C)(C)C(=O)O)cccc32)ccc1OCc1nc(-c2ccccc2)oc1C    40
CC[C@H](Oc1cccc2c1c1ccccc1n2Cc1ccc(OCc2nc(-c3ccccc3)oc2C)c(OC)c1)C(=O)[O-].[Na+]    32
COc1cc(Cn2c3ccccc3c3c(OCCC(C)C(=O)O)cccc32)ccc1OCc1nc(-c2ccccc2)oc1C (racemic)    23

Hi, could you look up Human PPARα agonist activities, Activity % (at 1 μM) for each item in my list?
1. Cc1oc(-c2ccccc2)nc1COc1ccc(Cn2c3ccccc3c3c(OC(C)(C)C(=O)O)cccc32)cc1
2. CCC(Oc1cccc2c1c1ccccc1n2Cc1ccc(OCc2nc(-c3ccccc3)oc2C)c(OC)c1)C(=O)O (racemic)
3. COc1cc(Cn2c3ccccc3c3c(OC(C)(C)C(=O)O)cccc32)ccc1OCc1nc(-c2ccccc2)oc1C
4. COc1cc(Cn2c3ccccc3c3c(OC(C)(C)C(=O)[O-])cccc32)ccc1OCc1nc(-c2ccccc2)oc1C.[Na+]
5. COc1cc(Cn2c3ccccc3c3c(OC(C)(C)C(=O)[O-])cccc32)ccc1OCc1nc(-c2cccs2)oc1C.[Na+]
6. COc1cc(Cn2c3ccccc3c3c(OCC(C)(C)C(=O)O)cccc32)ccc1OCc1nc(-c2ccco2)oc1C
7. COc1cc(Cn2c3ccccc3c3c(OC(C)(C)C(=O)O)cccc32)ccc1OCc1sc(-c2ccccc2)nc1C

A)
1: 37; 2: 27; 3: 43; 4: 56; 5: 66; 6: 69; 7: 56

Hi, could you look up Human PPARα agonist activities, Activity % (at 1 μM) for each item in my list?
1. COc1cc(Cn2c3ccccc3c3c(OC(C)(C)C(=O)O)cccc32)ccc1OCc1nc(-c2cccs2)oc1C
2. COc1cc(Cn2c3ccccc3c3c(OCC(C)(C)C(=O)O)cccc32)ccc1OCc1nc(-c2ccncc2)oc1C

A)
[60, 47]

====

Target: human PPARα (Homo sapiens, UniProt Q07869)
Construct: 1.6 kb of DNA fragment including human PPARα gene was collected from the gel; expressed in transfected cells; host or cells: CV-1 cells, transient transfection with pCI-hPPARa, pCI-hRXRa and the reporter pGL3-PPRE3-TK
Sequence (Q07869 1-468): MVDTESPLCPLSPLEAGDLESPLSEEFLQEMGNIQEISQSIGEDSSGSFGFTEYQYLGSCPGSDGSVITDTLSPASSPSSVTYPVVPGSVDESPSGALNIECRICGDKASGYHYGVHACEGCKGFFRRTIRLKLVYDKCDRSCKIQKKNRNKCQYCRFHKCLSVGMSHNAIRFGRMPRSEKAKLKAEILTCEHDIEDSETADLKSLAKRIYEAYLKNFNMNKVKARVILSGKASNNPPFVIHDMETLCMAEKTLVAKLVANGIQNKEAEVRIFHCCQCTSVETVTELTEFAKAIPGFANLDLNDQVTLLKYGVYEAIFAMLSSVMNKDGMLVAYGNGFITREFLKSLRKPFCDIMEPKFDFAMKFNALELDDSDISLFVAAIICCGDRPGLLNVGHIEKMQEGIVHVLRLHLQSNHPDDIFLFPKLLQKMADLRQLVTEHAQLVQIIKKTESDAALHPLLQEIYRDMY
Sequence (P19793 1-462 partner): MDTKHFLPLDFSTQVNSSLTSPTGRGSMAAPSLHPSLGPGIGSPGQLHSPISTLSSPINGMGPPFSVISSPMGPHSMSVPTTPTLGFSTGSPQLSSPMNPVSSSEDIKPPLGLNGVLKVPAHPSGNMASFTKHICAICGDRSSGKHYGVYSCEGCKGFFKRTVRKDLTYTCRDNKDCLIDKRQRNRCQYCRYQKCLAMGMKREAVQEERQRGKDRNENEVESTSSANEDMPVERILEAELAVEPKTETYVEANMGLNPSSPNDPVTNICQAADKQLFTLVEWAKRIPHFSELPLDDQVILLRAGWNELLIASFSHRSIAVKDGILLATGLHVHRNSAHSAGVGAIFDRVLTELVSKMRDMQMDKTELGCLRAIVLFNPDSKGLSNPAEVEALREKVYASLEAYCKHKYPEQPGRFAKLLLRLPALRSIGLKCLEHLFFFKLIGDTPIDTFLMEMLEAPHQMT
Experiment: Human PPARα agonist assay (luciferase reporter in transfected CV-1 cells)
Assay type: cell-based
Details: at 1 μM test compound alone; 100% = 1 μM stimulant (GW7647) only; CV-1 cells expressing human PPARα and RXRα
Give Human PPARα agonist activities, Activity % (at 1 μM) for every item shown.
Give bare numbers, in %.

COc1cc(Cn2c3ccccc3c3c(OC(C)(C)C(=O)O)cccc32)ccc1OCc1nc(-c2ccco2)oc1C [Example 7]    39

Hi, could you look up Human PPARα agonist activities, Activity % (at 1 μM) for each item in my list?
1. COc1cc(Cn2c3ccccc3c3c(OCC(C)(C)C(=O)[O-])cccc32)ccc1OCc1nc(-c2ccccc2)oc1C.[Na+] [Example 34]
2. COc1cc(Cn2c3ccccc3c3c(O[C@H](C)C(=O)[O-])cccc32)ccc1OCc1nc(-c2ccccc2)oc1C.[Na+] [Example 43]

A)
[41, 35]

For reference, reported Human PPARα agonist activities, Activity % (at 1 μM) for COc1cc(Cn2c3ccccc3c3c(OCC(C)(C)C(=O)O)cccc32)ccc1OCc1nc(-c2cccs2)oc1C [Example 24] stands at 64

Measured values drawn from patent US8329913B2 for this set.
